- target-entity: HIS-PDZ2 protein (PSD-95 PDZ2, residues 155-249, with tag …) (human, UniProt P78352 155-249)
- measurement-protocol: FP competition, fluorescent NR2B probe
Primed or numbered codes have the meaning given here. Ends that are not written are not given here. * marks the point of attachment. cyclohexylethyl″ = cyclohexylethyl group on the nitrogen (N-alkyl substituent), C1CCC(CC*)CC1; cyclohexylethyl = C1CCC(CC*)CC1
outcome-measure: pKi
Note on pKi: it is the negative log10 of concentration, concentration in mol/L.

Here is how some binders turned out for pKi.
# binder, pKi
rows = [
    ("{cyclohexylethyl″}-ETDV-OH (SMILES CC(C)[C@H](NC(=O)[C@H](CC(=O)O)NC(=O)[C@@H](NC(=O)[C@H](CCC(=O)O)NCCC1CCCCC1)[C@@H](C)O)C(=O)O) [ETDV (69), N-cyclohexylethyl]", 6.12),
    ("QTAV [QTAV (67)]", 3.97),
    ("cyclohexylethyl-ETAV [N-Cyclohexylethyl-ETAV (56)]", 6.35),
    ("QTDV [QTDV (65)]", 4.22),
    ("ATAV [ATAV (68)]", 4.14),
    ("ATDV [ATDV (66)]", 4.42),
    ("{cyclohexylethyl″}-ATDV-OH (SMILES CC(C)[C@H](NC(=O)[C@H](CC(=O)O)NC(=O)[C@@H](NC(=O)[C@H](C)NCCC1CCCCC1)[C@@H](C)O)C(=O)O) [ATDV (71), N-cyclohexylethyl]", 5.44),
    ("cyclohexylethyl-QTAV [QTAV (72), N-cyclohexylethyl]", 4.92),
]

Fill in: pKi of cyclohexylethyl-ATAV [ATAV (73), N-cyclohexylethyl] is ___
5.09

Origin of values: patent US20160176924A1
